- Tested on: Aspergillus fumigatus (ATCC MYA-4609/AF293/CBS 101355)
- protocol-text: Measurement of minimum inhibitory concentration (MIC), AF293
- Assay type: cell-based
- particulars: Aspergillus fumigatus AF293, 35° C., 48 hours, RPMI1640
measurement-label: AF293: MIC (µg/mL)

Answered cases to consult:
1) Cc1cc(-c2ccccc2)c(C(=O)C(=O)Nc2ccc3c(c2)OCC2CN(c4ncn(C)n4)CCN32)n1C (stereo not drawn) ... 1
2) Cc1cc(-c2ccccc2)c(C(=O)C(=O)Nc2ccc3c(c2)CC2CCN(c4ncc(F)cn4)CCN32)n1C (stereo not drawn) ... 0.06
3) Cc1cc(-c2ccccc2)c(C(=O)C(=O)Nc2ccc3c(c2)CC2CN(c4ncc(F)cn4)CCCN32)n1C (stereo not drawn) ... 0.06

1 = Cc1cc(-c2ccccc2)c(C(=O)C(=O)Nc2ccc3c(c2)CN(C)CC2CN(c4ncc(F)cn4)CCN32)n1C (stereo not drawn)
2 = Cc1cc(-c2ccccc2)c(C(=O)C(=O)Nc2ccc3c(c2)OCC2CN(c4ncc(C#N)cn4)CCN32)n1C (stereo not drawn)
3 = Cc1cc(-c2ccccc2)c(C(=O)C(=O)Nc2ccc3c(c2)COCC2CN(c4ncc(F)cn4)CCN32)n1C (stereo not drawn)
Rank order required: AF293: MIC, descending. Would you mind listing the labels in the order requested? 1, 2, 3
(1: 1 µg/mL, 2: 0.06 µg/mL, 3: 0.03 µg/mL)

----------
- protocol-text: Liver microsomal stability test, human
- Assay type: in vitro ADME
- particulars: Human liver microsomes, 0.5 mg/mL protein, 37° C., NADPH
- Experimental: • 1: Add 10 μL of working solutions of test product or reference product and 80 μL of microsomal working solution (liver microsomal protein concentration of 0.5 mg/mL) to wells of TO, T5, T10, T20, T30, T60, and NCF60, and only microsomal working solution is added to the Blank60 wells. […]
measurement-label: CLint scaled (mL/min/kg)

A = Cc1cc(-c2ccccc2)c(C(=O)C(=O)Nc2cc(F)c3c(c2)OCC2CN(c4ncc(F)cn4)CCN32)n1C (centres unmarked) [Example 4]
B = Cc1cc(-c2ccccc2)c(C(=O)C(=O)Nc2ccc3c(c2)C[C@@H]2CN(c4ncc(F)cn4)CCN32)n1C [Example 34]
I'm curious whether A or B has the smaller CLint scaled number. Which is it? Lab log: write the label of the selected item as the result. B
(B: 31.3 mL/min/kg, A: 66.4 mL/min/kg)

I = Cc1cc(-c2ccccc2)c(C(=O)C(=O)Nc2ccc3c(c2)OCC2CN(c4ncc(C(F)(F)F)cn4)CCN32)n1C (centres unmarked) [Example 9]
II = Cc1cc(-c2ccccc2)c(C(=O)C(=O)Nc2ccc3c(c2)CC2CN(c4ncc(F)cn4)CCN32)n1C (centres unmarked) [Example 1]
Identify the item whose CLint scaled is the smaller number: I or II // caller expects the label of the chosen entry II
(II: 32.6 mL/min/kg, I: 52.9 mL/min/kg)

----------
- protocol-text: Pharmacokinetic test in SD rats, single oral administration
- Format: in vivo
- particulars: SD, rat, plasma, po, 10 mg/kg, single oral administration 10 mg/kg, test compound mixed with F901318, plasma, read-out: Tmax
measurement-label: Tmax (h)

1. Cc1cc(-c2ccccc2)c(C(=O)C(=O)Nc2ccc3c(c2)C[C@H]2CN(c4ncc(F)cn4)CCN32)n1C ... 1
2. Cc1cc(-c2ccccc2F)c(C(=O)C(=O)Nc2ccc3c(c2)OC[C@H]2CN(c4ncc(F)cn4)CCN32)n1C ... 0.833
3. Cc1cc(-c2ccccc2)c(C(=O)C(=O)Nc2cc(F)c3c(c2)OC[C@H]2CN(c4ncc(F)cn4)CCN32)n1C ... 1

a = Cc1cc(-c2ccccc2)c(C(=O)C(=O)Nc2ccc3c(c2)OCC2CN(c4ncc(F)cn4)CCN32)n1C (centres unmarked)
b = Cc1cc(-c2ccccc2)c(C(=O)C(=O)Nc2ccc3c(c2)CC2CN(c4ncc(F)cn4)CCN32)n1C (centres unmarked)
Which of the two gives a bigger number for Tmax: a or b ? State the label of the item chosen. b
